molecular target: protein kinase B (UniProt P31749); assay: cell-based or functional assay
Sequence (P31749 whole entry): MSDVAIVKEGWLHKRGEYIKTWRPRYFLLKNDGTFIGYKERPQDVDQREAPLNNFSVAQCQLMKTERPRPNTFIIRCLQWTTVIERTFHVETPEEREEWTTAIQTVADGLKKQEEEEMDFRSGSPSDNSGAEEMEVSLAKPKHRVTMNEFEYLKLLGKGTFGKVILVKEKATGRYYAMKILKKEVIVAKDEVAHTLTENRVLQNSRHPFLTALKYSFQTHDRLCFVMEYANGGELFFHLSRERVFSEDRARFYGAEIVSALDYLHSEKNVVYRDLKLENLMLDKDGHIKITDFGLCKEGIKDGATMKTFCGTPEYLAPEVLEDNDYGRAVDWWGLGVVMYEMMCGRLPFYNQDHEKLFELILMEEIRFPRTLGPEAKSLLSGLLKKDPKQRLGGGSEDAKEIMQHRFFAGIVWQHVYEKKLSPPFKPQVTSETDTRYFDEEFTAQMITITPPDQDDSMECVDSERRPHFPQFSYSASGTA
Where no end group is shown, it is not given here. Side-chain parts run from the residue outwards. [ ]: non-standard residue; d: D form. The star is where a group is joined. X1 = 5‑aminoethylsulfonamide isoquinoline, O=S(=O)(NCCN*)c1cccc2cnccc12; hLeu = CC(C)CC[C@H](N)C(=O)O; Nle = CCCC[C@H](N)C(=O)O; Orn = NCCC[C@H](N)C(=O)O; Dab = NCC[C@H](N)C(=O)O; Nva = CCC[C@H](N)C(=O)O; βAla = NCCC(=O)O
measuredAttribute: IC50 PKB (nM)
// note: answer is a bare numeric in nM

Past entries and their recorded results:
>>> experimentalresult("RPR[Nle]E([Gly-X1])[Dab]F (not fully specified (C-terminus)) [TY-60020-57]")
70
>>> experimentalresult("RPR[Nle]E([Gly-X1])[Orn]F (not fully specified (C-terminus)) [TY-60020-59]")
300
>>> experimentalresult("RPR[Nle]E([βAla-X1])[Nva]F (not fully specified (C-terminus)) [TY-60020-95]")
3300
>>> experimentalresult("RPR[Nle]E([Gly-X1])[Dab][hLeu] (not fully specified (C-terminus)) [TY-60020-58]")
120

QUERY: Field request: IC50 PKB | item: RPR[Orn]E([Gly-X1])[Dab][hLeu] (not fully specified (C-terminus)) [TY-60020-42]
RESULT: 110
